EXPERIMENTAL_DETAILS: method code SF, from Hansch, C. & Leo, A. (1987). Log P database [Dataset]. Pomona College Medicinal Chemistry Project.
Assign y to entries whose logP meets or exceeds 3; assign n to the rest.

As a guide, the following entries are already answered.
Confirm if logP reported for the compound COc1nnccc1N(C)C is 3 or above. n

Follow-up item: CC(=O)OC[C@H]1O[C@@H](NC(=O)N(CCCl)N=O)[C@H](OC(C)=O)[C@@H](OC(C)=O)[C@H]1OC(C)=O n

Follow-up item: COc1ccc(C=C(C(C)=O)C(C)=O)cc1 n

Follow-up item: FC(F)(F)C(F)(F)C(F)(F)C(F)(F)C(F)(F)F y

Follow-up item: C1=CCCCC1 n

Follow-up item: COCC1=Nc2cc(Cl)ccc2S(=O)(=O)N1 n

Others:
Confirm if logP reported for the compound CN(C)CC(CN1c2ccccc2Sc2ccccc21)N(C)C (stereo not drawn) is 3 or above. y

Follow-up item: O=C(C(=O)c1ccccc1)c1ccccc1 y
